- Method summary: Clearance in Sprague-Dawley rat at 1.4 mg/kg, iv
- Assay type: ADME, organism-based
- Parameters: dose 1.4 mg/kg, route intravenous
- Test conditions: in vivo
Test readout: clearance (L/h/kg)
Express your answer in L/h/kg, writing the number without its unit.

Task: State the recorded clearance for this entry: COc1cnc(OC)c2c1c(C(=O)C(=O)N1CCN(C(=O)c3ccccc3)CC1)cn2COP(=O)(O)O.NCCCC[C@H](N)C(=O)O
Output: 0.84

----------
- Method summary: Half life in healthy human at 25 mg, po administered with high fat meal
- Assay type: ADME, organism-based
- Test conditions: in vivo
Test readout: half-life

Task: If you can, please state the reported half-life value of COc1cnc(OC)c2c1c(C(=O)C(=O)N1CCN(C(=O)c3ccccc3)CC1)cn2COP(=O)(O)O.NCCCC[C@H](N)C(=O)O .
Output: 1 h

----------
- Method summary: Tmax in healthy human at 50 mg, po administered with high fat meal
- Assay type: ADME, organism-based
- Test conditions: in vivo
Test readout: Tmax (min)
Give a bare numeral; the unit min is implied.

Task: For COc1cnc(OC)c2c1c(C(=O)C(=O)N1CCN(C(=O)c3ccccc3)CC1)cn2COP(=O)(O)O.NCCCC[C@H](N)C(=O)O , what is its reported Tmax?
Output: 30

----------
- Method summary: Half life in healthy human at 200 mg, po administered with high fat meal
- Format: ADME, organism-based
- Test conditions: in vivo
Test readout: half-life (h)
Respond with the bare value in h.

Task: What half-life value was documented for this compound, COc1cnc(OC)c2c1c(C(=O)C(=O)N1CCN(C(=O)c3ccccc3)CC1)cn2COP(=O)(O)O.NCCCC[C@H](N)C(=O)O ?
Output: 6.7

----------
- Method summary: Tmax in healthy human at 400 mg, po administered with high fat meal
- Type: ADME, organism-based
- Test conditions: in vivo
Test readout: Tmax
Value and unit, in that order.

Task: Which Tmax reading was recorded for the molecule COc1cnc(OC)c2c1c(C(=O)C(=O)N1CCN(C(=O)c3ccccc3)CC1)cn2COP(=O)(O)O.NCCCC[C@H](N)C(=O)O ?
Output: 37.8 min

----------
- Method summary: Tmax in healthy human at 800 mg, po administered with high fat meal
- Type: ADME, organism-based
- Test conditions: in vivo
Test readout: Tmax (h)
Report the value in h with no unit label.

Task: Give its Tmax value. Item: COc1cnc(OC)c2c1c(C(=O)C(=O)N1CCN(C(=O)c3ccccc3)CC1)cn2COP(=O)(O)O.NCCCC[C@H](N)C(=O)O
Output: 1

----------
- Method summary: Cmax in healthy human at 200 mg, po administered with high fat meal
- Type: ADME, organism-based
- Parameters: dose 200 mg, route oral
- Test conditions: in vivo
Test readout: Cmax (ng/mL)
Reply numerically in ng/mL, unit not repeated.

Task: Tell me the measured Cmax of COc1cnc(OC)c2c1c(C(=O)C(=O)N1CCN(C(=O)c3ccccc3)CC1)cn2COP(=O)(O)O.NCCCC[C@H](N)C(=O)O , please.
Output: 8420

----------
- Method summary: Half life in Sprague-Dawley rat at 1.4 mg/kg, iv
- Type: ADME, organism-based
- Parameters: dose 1.4 mg/kg, route intravenous
- Test conditions: in vivo
Test readout: half-life (min)
Number in min, nothing else.

Task: Fill in the blank: the reported half-life of COc1cnc(OC)c2c1c(C(=O)C(=O)N1CCN(C(=O)c3ccccc3)CC1)cn2COP(=O)(O)O.NCCCC[C@H](N)C(=O)O is ____.
Output: 9.6
